# Test Description: probe aNOTCH2 binding on compound microarray – biochemical, small-molecule microarray, 635/667 nm fluorescence, primary screen (AID 1121);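 further: score merges feature fluorescence read at 667 nm with its signal to noise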
# Experimental Context: higher = more signal
# label = label 1 if composite z-score >= -0.09 else label 0

Molecule	Assigned Category
C[N+](C)(C)CCCC[C@@H]1NC(=O)[C@@H]2C[C@H](C(=O)NCCCCCN)[C@H](c3ccc(O)cc3)N2C1=O	label 1
CCCNC(=O)[C@@H]1c2ccccc2C(=O)N(Cc2ccccc2OC)[C@H]1c1ccc(CO)cc1	label 0
COc1cc(CO)cc(I)c1O[C@H]1C=C(C(=O)NCCO)C[C@@H](N(C(=O)c2cc3ccccc3oc2=O)C2CCCCCC2)[C@@H]1O	label 1
CN1C(=O)C2C=CC(C(O)c3ccc(F)cc3)N(N(c3ccccc3)c3ccccc3)C2C1=O (stereo not given)	label 1
C[N+](C)(C)CCCCCCNC(=O)[C@H]1C[C@H]2C(=O)N[C@@H](Cc3ccccc3)C(=O)N2[C@H]1c1cccc(OCCO)c1	label 0
O=C1C2C=CC(C(O)c3ccc(F)cc3)N(Nc3ccc([N+](=O)[O-])cc3)C2C(=O)N1c1ccccc1 (stereo not given)	label 1
CN(C)C(=O)[C@]1(Cc2ccccc2)N=C(c2ccc(OCCCO)cc2)O[C@@H]1c1ccccc1N=[N+]=[N-]	label 1
C[N+](C)(C)CCCC[C@@H]1NC(=O)[C@@H]2C[C@H](C(=O)NCCCCCCNC(=O)CS)[C@H](c3ccc(O)cc3)N2C1=O	label 0
C=CCC(OC(C)=O)[C@@H]1[C@@H](N(Cc2ccc(-c3ccccc3)cc2)C(=O)Cc2ccc(F)cc2)c2cc(OCCCO)ccc2N1C(=O)c1ccc2ccccc2c1 (stereo not given in full)	label 1
O=C1C2C=CC(C(O)c3ccc4c(c3)OCO4)N(Nc3ccc([N+](=O)[O-])cc3)C2C(=O)N1c1ccccc1 (stereo not given)	label 0
C=CCNC(=O)[C@@H]1[C@H]2C(=O)O[C@H](c3ccccc3)[C@H](c3ccccc3)N2[C@H](c2ccc(OCCO)cc2)[C@@]12C(=O)N(C(=O)OCCOC)c1ccc(C#CCNC(N)=O)cc12	label 1
CN(C)CCCCCCNC(=O)[C@@H]1C[C@@H]2C(=O)N[C@@H](CCCC[N+](C)(C)C)C(=O)N2[C@@H]1c1ccc(O)cc1	label 0
OCCCC1=CC(C2CC2)N(Cc2cccc(OC(F)(F)F)c2)CC1 (stereo not given)	label 0
CCCCN1CC=CC23O[C@@H]4/C=C\CCCOC(=O)C4[C@H]2C(=O)N(CCCO)[C@@H]3C1=O (stereo not given in full)	label 0
C=C(CCCC)/C(=C/C[C@H](OC(=O)c1ccncc1)c1ccc(OCCO)cc1)c1cc(C(=O)OC)ccc1OC	label 0

----------
Reported composite z-score values are given for each entry in this list.
# Test Description: binders from COS7 lysate, DM2A8 probe, primary screen, torsin A project, cell lysate, small-molecule microarray, fluorescence 635/667 (AID 1065)
# Experimental Context: higher = more signal, COS7 lysate expressing mutant human TOR1A

Compound	composite z-score
[N-]=[N+]=Nc1ccccc1C[C@@]1(C(=O)N2CCCCC2)N=C(c2ccc(OCCCO)cc2)O[C@@H]1c1ccccc1N=[N+]=[N-]	0.436
C=CC[C@@]1(C(=O)N2CCCCC2)N=C(c2ccc(OCCCO)cc2)O[C@@H]1c1ccccc1N=[N+]=[N-]	-0.0912
CCCC(=O)N(CCc1c[nH]c2ccccc12)[C@@H]1CC(C(=O)NCCO)=C[C@H](Oc2c(I)cc(CO)cc2OC)[C@H]1O	0.809
COCCOC(=O)N1C(=O)[C@@]2(c3ccccc31)[C@H](C(N)=O)[C@H]1C(=O)O[C@H](c3ccccc3)[C@H](c3ccccc3)N1[C@@H]2c1ccc(O)cc1	0.209
O=C(NCc1ccccc1)[C@@H]1c2ccccc2C(=O)N(C2Cc3ccccc3C2)[C@H]1c1ccc(CO)cc1	0.0455
[N-]=[N+]=NCc1ccccc1[C@H]1OC(c2ccc(OCCCO)cc2)=N[C@@]1(Cc1ccccc1)C(=O)N1CCCCC1	0.368
CCN(CC)c1ccc(N2CC=CC34O[C@@H]5/C=C\CCC(C)OC(=O)C5[C@H]3C(=O)N(CCCCCO)[C@@H]4C2=O)cc1 (some centres not stated)	-0.474

----------
# Study System: Calmodulin-1 (Homo sapiens) (UniProt P0DP23)
# Test Description: small molecules binding Ca-loaded calmodulin-1 – biochemical, small-molecule microarray, Cy5-labelled CALM1, plus calcium, artefact control for SMM control-protein annotation, profiling panel (AID 1112);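 further: score merges spot fluorescence with signal to noise from triplicate slides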
# Experimental Context: Cy5-CALM1 binding fluorescence, higher = more signal
Quantity Kind: composite z-score

Compound	Number
O=C1C2C=CC(C(O)c3ccc(-c4ccccc4)s3)N(Nc3ccccc3)C2C(=O)N1c1ccccc1 (stereo not drawn)	0.133
COC(=O)[C@@]1(CCC(=O)OC(C)(C)C)N=C(c2ccc(OCCCO)cc2)O[C@H]1c1ccccc1	-0.181
CC(C)(C)OC(=O)CC[C@]1(C(N)=O)N=C(c2ccc(OCCCO)cc2)O[C@H]1c1ccccc1	1.66
COC(=O)[C@@]1(Cc2ccc(F)cc2)[C@H]2c3cc(C(=O)N(C)C)n(Cc4cc(C)n(C)n4)c3C[C@H]2CN1C(=O)c1ccccc1	0.669
COc1ccc([C@H]2C[C@H]3C(I)=C[C@@H]2C(=O)[C@]32CO2)cc1	-1.53
COc1ccc(C(=O)Nc2cccc(CN3C(=O)[C@]4(O[C@H](CCn5cc(CCO)nn5)[C@@H]([Si](C)(C)c5ccc(OC)cc5)[C@@H]4C)c4ccccc43)c2)cc1	-0.0319
COc1cc2c(cc1O)C(c1cccs1)N(Cc1cccc(OC(F)(F)F)c1)CC2 (stereo not drawn)	-0.194
COCCOC(=O)N1C(=O)[C@@]2(c3cc(C#CC4(O)CCCCCC4)ccc31)[C@H](C(=O)Nc1nc3ccccc3s1)[C@H]1C(=O)O[C@H](c3ccccc3)[C@H](c3ccccc3)N1[C@@H]2c1ccccc1OCCO	0.926

----------
This listing pairs compounds with measured z-score.
# Test Description: budding yeast growth modifiers under rapamycin – strain BY4716, OD600, 96 h, primary screen (AID 1091); further: test concentration not given here
# Experimental Context: S. cerevisiae BY4716 + rapamycin, higher = more signal, called active from +8 up or from −8 down
Active and inactive are the calls of the source.

Compound	z-score
COC(=O)C(CC#Cc1ccc2c(c1)[C@]1(C(=O)N2)[C@H](c2ccc(O)cc2)N2[C@H](c3ccccc3)[C@H](c3ccccc3)OC(=O)[C@H]2[C@@H]1C(=O)N1CCN(c2ncccn2)CC1)C(=O)OC	1.93 (inactive)
O=C1C[C@@](C(=O)NCc2ccccc2)(c2ccc([N+](=O)[O-])cc2)[C@@H](c2ccc(CO)cc2)N1CC12CC3CC(CC(C3)C1)C2	8.2 (active)
COc1ccc(NN2C(C(O)c3ccc(N(C)C)cc3)C=CC3C(=O)N(C4CCCCC4)C(=O)C32)cc1 (stereo not drawn)	0.687 (inactive)
NC(=O)[C@@H]1[C@H]2C(=O)O[C@H](c3ccccc3)[C@H](c3ccccc3)N2[C@H](c2ccc(OCCO)cc2)[C@@]12C(=O)Nc1ccc(C#CC3=CCCCC3)cc12	2.91 (inactive)
COC(=O)C(CC#Cc1ccc2c(c1)[C@]1(C(=O)N2)[C@H](c2ccccc2OCCO)N2[C@H](c3ccccc3)[C@H](c3ccccc3)OC(=O)[C@H]2[C@@H]1C(N)=O)C(=O)OC	3.7 (inactive)
NC(=O)NCC#Cc1ccc2c(c1)[C@]1(C(=O)N2)[C@H](C(=O)O)[C@H]2C(=O)O[C@H](c3ccccc3)[C@H](c3ccccc3)N2[C@@H]1c1ccc(O)cc1	-0.483 (inactive)
O=C1[C@H]2C=C(Br)[C@H](C[C@@H]2OCCCCCCO)[C@@]12CO2	1.32 (inactive)
COCCOC(=O)N1C(=O)[C@@]2(c3ccccc31)[C@H](C(N)=O)[C@H]1C(=O)O[C@H](c3ccccc3)[C@H](c3ccccc3)N1[C@@H]2c1ccc(O)cc1	0.695 (inactive)
O=C1O[C@H](c2ccccc2)[C@H](c2ccccc2)N2[C@H]1[C@@H](C(=O)NC[C@H](O)c1ccccc1)[C@]1(C(=O)Nc3ccccc31)[C@H]2c1ccc(O)cc1	1.7 (inactive)
C[C@H]1C2[C@H](Cc3ccccc3)NC(=O)[C@]23C(=O)NCC(=O)N2CCC[C@H]2C(=O)NC/C=C/CCC/C=C/C3[C@@H]2O[C@]12C (stereo partly drawn)	-0.0152 (inactive)
O=C1C2C=CC(C(O)C=Cc3ccc([N+](=O)[O-])cc3)N(Nc3ccccc3F)C2C(=O)N1c1ccccc1 (stereo not drawn)	1.47 (inactive)
C[N+](C)(C)CCCC[C@@H]1NC(=O)[C@@H]2C[C@H](C(=O)NCCCCCN)[C@H](c3ccc(O)cc3)N2C1=O	-0.978 (inactive)
COc1cc(CO)cc(I)c1O[C@H]1C=C(C(=O)NCCO)C[C@@H](NC[C@@H]2CCCO2)[C@@H]1O	-0.0698 (inactive)
